All values here come from patent US8232407B2.

tested on: Nilaparvata lugens; experiment: Insecticidal activities to plant hopper, spraying method; type: in vivo; details: in vivo
Some compounds, each annotated with its measured Nilaparvata lugens Mortality (%) 500 ppm.
Observable: Nilaparvata lugens Mortality (%) 500 ppm

Compound | Unit descriptor | Measured result
CC(c1ccc(Cl)nc1)N1CCN=C1C(=Cc1ccoc1)[N+](=O)[O-] (racemic) | % | 100
Cc1ccc(C=C(C2=NCCN2Cc2ccc(Cl)nc2)[N+](=O)[O-])cn1 | % | 36
O=[N+]([O-])C(=Cc1ccc([N+](=O)[O-])o1)C1=NCCN1CC1CCOC1 (stereo not drawn) | % | 87
O=[N+]([O-])C(=Cc1cc(Br)cs1)C1=NCCN1Cc1cnc(Cl)s1 | % | 100
N#CC(=Cc1ccco1)C1=NCCN1Cc1ccc(Cl)nc1 | % | 100
O=[N+]([O-])C(=Cc1cnc[nH]1)C1=NCCN1Cc1ccc(Cl)nc1 | % | 89

====

system: Nilaparvata lugens; assay: Insecticidal activities to plant hopper, spraying method; format: in vivo; details: in vivo
We begin with a simple list: items and their reported Nilaparvata lugens Mortality (%) 500 ppm.
Observable: Nilaparvata lugens Mortality (%) 500 ppm

Compound | Measured result
CC[N+]1=C(C(=Cc2ccco2)[N+](=O)[O-])N(Cc2ccc(Cl)nc2)CC1.[Cl-] | 100
O=[N+]([O-])C(=Cc1ccco1)C1=NCCN1Cc1ccccc1 | 100
C[N+]1=C(C(=Cc2cc(Br)co2)[N+](=O)[O-])N(Cc2ccc(Cl)nc2)CC1.[Cl-] | 100
Cc1coc(C=C(C2=NCCN2Cc2ccc(Cl)nc2)[N+](=O)[O-])c1 | 100
CN=C(C(=Cc1ccc(Cl)o1)[N+](=O)[O-])N(C)Cc1ccc(Cl)nc1 [Compound 164] | 100
CCN(Cc1ccc(Cl)nc1)C(=NC)C(=Cc1ccc(Cl)o1)[N+](=O)[O-] | 100
CCN(Cc1cnc(Cl)s1)C(=NC)C(=Cc1ccc(Cl)s1)[N+](=O)[O-] | 50
O=[N+]([O-])C(=Cc1cc(Br)c(Br)o1)C1=NCCN1Cc1ccccc1 | 23
O=[N+]([O-])C(=Cc1ccc(Cl)s1)C1=NCCN1Cc1cnc(Cl)s1 | 100
CCN=C(C(=Cc1ccoc1)[N+](=O)[O-])N(C)Cc1ccc(Cl)nc1 | 100

====

tested on: Aphis craccivoral; assay: Insecticidal activities to aphids, immersion method; assay type: in vivo; settings: in vivo
Aphis craccivoral Mortality (%) 500 ppm values, listed per item

Compound | Aphis craccivoral Mortality (%) 500 ppm
C[N+]1=C(C(=Cc2cc(Cl)c(Cl)o2)[N+](=O)[O-])N(Cc2ccc(Cl)nc2)CC1.[Cl-] [Compound 251] | 100
O=[N+]([O-])C(=Cc1ccc(CO)o1)C1=NCCN1Cc1ccc(Cl)nc1 [Compound 15] | 100
C[N+]1=C(C(=Cc2ccc(Br)o2)[N+](=O)[O-])N(Cc2ccc(Cl)nc2)CC1.[Cl-] [Compound 248] | 100
Cn1cccc1C=C(C1=[N+](C)CCN1Cc1ccc(Cl)nc1)[N+](=O)[O-].[Cl-] [Compound 275] | 100
CN=C(C(=Cc1cccs1)[N+](=O)[O-])N(C)Cc1cnc(Cl)s1 [Compound 220] | 80
CCN(Cc1ccc(Cl)nc1)C(=NC)C(=Cc1ccc(Cl)o1)[N+](=O)[O-] [Compound 182] | 100
O=[N+]([O-])C(=Cc1cc(Cl)co1)C1=NCCN1Cc1ccccc1 [Compound 106] | 91
O=[N+]([O-])C(=Cc1ccc(Cl)nc1)C1=NCCN1Cc1ccc(Cl)nc1 [Compound 40] | 45
O=[N+]([O-])C(=Cc1ccoc1)C1=NCCN1Cc1cnc(Cl)s1 [Compound 69] | 100
C[N+]1=C(C(=Cc2ccc(Br)s2)[N+](=O)[O-])N(Cc2ccc(Cl)nc2)CC1.[Cl-] [Compound 263] | 100
Cc1ccc(C=C(C2=NCCN2Cc2ccc(Cl)nc2)[N+](=O)[O-])cn1 [Compound 42] | 45
O=[N+]([O-])C(=Cc1cccs1)C1=NCCN1Cc1cnc(Cl)s1 [Compound 83] | 100
CC(=C(C1=NCCN1Cc1ccc(Cl)nc1)[N+](=O)[O-])c1ccc([N+](=O)[O-])s1 [Compound 117] | 83
CCN(Cc1ccc(Cl)nc1)C(=NC)C(=C(C)c1ccc[nH]1)[N+](=O)[O-] [Compound 204] | 92
CN=C(C(=Cc1ccoc1)[N+](=O)[O-])N(C)Cc1ccc(Cl)nc1 [Compound 233] | 80
O=[N+]([O-])C(=Cc1cc(Br)co1)C1=NCCN1Cc1ccccc1 [Compound 107] | 82
O=[N+]([O-])C(=Cc1cc(Cl)cs1)C1=NCCCN1Cc1ccc(Cl)nc1 [Compound 66] | 56
